Data credit: patent US20040018971A1

- Measured target: T1, HLA-A*0206 (human)
- T1 construct: purified HLA class I molecule
- Measurement description: competition for purified HLA vs 125I-labelled probe peptide, gel filtration
Answer each item with its documented pIC50.
API: returns pIC50 as number; meaning -log10 of concentration in mol/L.

## Task State the recorded pIC50 for this entry: SLISAVVGV (analog of Her2/neu.653) [Her2/neu.653.L2V9]
## Result 7.70

## Task State the recorded pIC50 for this entry: YLIMVKCWMV (analog of Her2/neu.952 (10-mer)) [Her2/neu.952.L2V10]
## Result 7.74

## Task State the recorded pIC50 for this entry: VLIQRNPQV (analog of Her2/neu.153) [Her2/neu.153.V9]
## Result 6.41
